Collected percent effect (mortality or growth inhibition) at 100 ppm values appear next to each entry.
- Test system: Leucania separate
- PROTOCOL TEXT: Activity against Leucania separate, sprayed maize sprouts, L2 larvae
- Type: in vivo
- RECORDED CONDITIONS: 96 h; application rate 100 ppm; 4 days after infestation; read-out: effect in at least one of the two categories (mortality or growth inhibition)

Output measured percent effect (mortality or growth inhibition) at 100 ppm for this item: CCS(=O)(=O)c1cc2nc(C)n(C)c2nc1-c1nc2cc(C(F)(F)F)cnc2n1C
≥ 90%

Indicate the recorded percent effect (mortality or growth inhibition) at 100 ppm value for this molecule: CCS(=O)(=O)c1cc2nc(C3CC3)n(C)c2nc1-c1nc2cc(C(F)(F)F)cnc2n1C
≥ 90%

Kindly indicate its recorded percent effect (mortality or growth inhibition) at 100 ppm. Item: CCS(=O)(=O)c1cc2nc(C3CC3)sc2nc1-c1nc2cc(C(F)(F)F)cnc2n1C
≥ 90%

We next turn to a different molecule, shown below.
Consider the molecule CCS(=O)(=O)c1cc2sc(C3CC3)nc2nc1-c1nc2cc(C(F)(F)F)cnc2n1C and give its recorded percent effect (mortality or growth inhibition) at 100 ppm.
≥ 90%
